Values were extracted from patent US20260356804A1.

Measured IC50 values are reported for all entries that follow.
# system.tested: human Nav1.8/b3 (Homo sapiens)
# Construct: expressed in transfected cells; host or cells: CHO
# method.summary: Compound Profiling Human NaV1.8/β3 Cell Line—SyncroPatch384PE Assay (automated patch clamp, stably transfected CHO cells)
# Type: cell-based
# recorded.conditions: P2 (IC50, inactivated state block), P2 measurement, inactivated state block; Nav1.8/b3 CHO cells, inactivation step −35 mV 10 sec; third set of compounds
endpoint: IC50

compound	endpoint	measured.value
Cc1nc(F)ccc1Oc1ncc(C(F)(F)F)c(C)c1C(=O)Nc1ccc(F)c([S@@](C)(=N)=O)c1 (single isomer, unassigned) [Example 14C]	IC50	5 to 50 nM
Cc1nc(F)ccc1Oc1ncc(-c2ccc3c(c2)OCCO3)c(C)c1C(=O)Nc1cccc([S@](C)(=N)=O)c1 [Example 4C]	IC50	5 to 50 nM
Cc1nc(F)ccc1Oc1nc(C(F)(F)F)c(Br)c(C)c1C(=O)Nc1cccc([S@@](C)(=O)=NCCN)c1 [Example 96C]	IC50	< 5 nM

* * *

Measured IC50 values are reported for all entries that follow.
# system.tested: human Nav1.8/b3 (Homo sapiens, UniProt Q9Y5Y9)
# Construct: expressed in transfected cells; host or cells: CHO
# Sequence (Q9Y5Y9 whole entry): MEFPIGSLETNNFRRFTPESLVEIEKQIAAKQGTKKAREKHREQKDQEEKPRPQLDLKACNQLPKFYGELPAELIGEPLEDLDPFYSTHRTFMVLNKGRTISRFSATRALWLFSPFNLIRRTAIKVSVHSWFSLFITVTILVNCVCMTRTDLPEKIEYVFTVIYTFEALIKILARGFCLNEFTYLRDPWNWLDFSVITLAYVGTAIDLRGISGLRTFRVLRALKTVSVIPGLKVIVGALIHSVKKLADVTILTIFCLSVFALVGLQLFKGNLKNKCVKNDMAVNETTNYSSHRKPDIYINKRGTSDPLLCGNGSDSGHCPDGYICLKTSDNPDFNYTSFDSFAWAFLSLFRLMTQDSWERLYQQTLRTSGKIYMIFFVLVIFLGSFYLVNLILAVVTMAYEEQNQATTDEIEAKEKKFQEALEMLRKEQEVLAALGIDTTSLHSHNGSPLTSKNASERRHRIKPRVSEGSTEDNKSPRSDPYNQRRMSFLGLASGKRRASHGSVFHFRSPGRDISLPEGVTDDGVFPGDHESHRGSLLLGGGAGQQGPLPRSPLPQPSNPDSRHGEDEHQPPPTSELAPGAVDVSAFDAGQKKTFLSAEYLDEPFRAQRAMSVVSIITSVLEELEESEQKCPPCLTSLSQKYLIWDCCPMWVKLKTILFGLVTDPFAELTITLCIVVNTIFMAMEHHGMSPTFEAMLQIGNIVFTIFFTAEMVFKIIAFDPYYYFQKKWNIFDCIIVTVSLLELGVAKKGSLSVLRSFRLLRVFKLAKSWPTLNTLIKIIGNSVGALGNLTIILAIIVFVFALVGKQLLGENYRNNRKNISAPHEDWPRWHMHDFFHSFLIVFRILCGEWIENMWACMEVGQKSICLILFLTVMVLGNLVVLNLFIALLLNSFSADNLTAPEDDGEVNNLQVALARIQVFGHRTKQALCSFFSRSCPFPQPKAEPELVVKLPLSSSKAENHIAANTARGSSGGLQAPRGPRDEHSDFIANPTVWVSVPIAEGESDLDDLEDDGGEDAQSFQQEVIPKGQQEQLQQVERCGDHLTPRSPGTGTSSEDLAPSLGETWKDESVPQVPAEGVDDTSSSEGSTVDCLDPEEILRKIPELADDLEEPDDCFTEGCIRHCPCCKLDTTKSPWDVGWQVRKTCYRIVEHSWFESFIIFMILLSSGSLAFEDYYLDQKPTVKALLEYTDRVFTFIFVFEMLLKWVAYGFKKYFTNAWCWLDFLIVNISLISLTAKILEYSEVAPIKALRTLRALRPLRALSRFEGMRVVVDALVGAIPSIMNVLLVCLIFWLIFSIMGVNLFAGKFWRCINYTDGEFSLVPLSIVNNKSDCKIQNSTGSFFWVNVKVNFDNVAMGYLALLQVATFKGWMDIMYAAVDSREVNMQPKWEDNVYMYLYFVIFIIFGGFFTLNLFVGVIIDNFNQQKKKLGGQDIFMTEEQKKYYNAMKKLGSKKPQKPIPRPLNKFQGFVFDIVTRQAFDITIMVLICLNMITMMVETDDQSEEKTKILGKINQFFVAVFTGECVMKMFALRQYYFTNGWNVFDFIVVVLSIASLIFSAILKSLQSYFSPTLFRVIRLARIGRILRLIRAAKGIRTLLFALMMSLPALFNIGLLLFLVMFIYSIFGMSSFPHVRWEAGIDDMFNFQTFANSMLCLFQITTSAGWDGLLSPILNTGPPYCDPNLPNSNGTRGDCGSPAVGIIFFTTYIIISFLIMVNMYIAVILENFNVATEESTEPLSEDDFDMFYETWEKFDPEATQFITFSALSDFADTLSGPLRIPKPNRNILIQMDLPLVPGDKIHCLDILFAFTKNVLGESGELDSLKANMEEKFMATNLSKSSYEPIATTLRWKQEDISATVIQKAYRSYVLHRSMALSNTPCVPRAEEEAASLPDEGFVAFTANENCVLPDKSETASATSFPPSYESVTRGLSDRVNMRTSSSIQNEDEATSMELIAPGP
# Sequence (Q9NY72 23-215 partner): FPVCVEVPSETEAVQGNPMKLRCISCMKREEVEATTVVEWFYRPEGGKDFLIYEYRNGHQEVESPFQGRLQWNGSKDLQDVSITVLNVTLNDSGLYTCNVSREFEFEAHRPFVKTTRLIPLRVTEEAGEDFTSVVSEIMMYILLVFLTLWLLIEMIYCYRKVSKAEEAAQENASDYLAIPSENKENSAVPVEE
# method.summary: Compound Profiling Human NaV1.8/β3 Cell Line—SyncroPatch384PE Assay (automated patch clamp, stably transfected CHO cells)
# Format: cell-based
# recorded.conditions: P2 (IC50, inactivated state block), P2 measurement, inactivated state block; Nav1.8/b3 CHO cells, inactivation step −35 mV 10 sec; third set of compounds

compound	IC50
Cc1nc(F)ccc1Oc1ncc(C(F)(F)F)c(C)c1C(=O)Nc1ccnc([S@@](C)(=N)=O)c1 (single isomer, unassigned) [Example 10C]	5 to 50 nM
Cc1nc(F)ccc1Oc1nc(C2CC2)c(C(F)(F)F)c(C)c1C(=O)Nc1ccnc([S@@](C)(=N)=O)c1 [Example 105C]	< 5 nM
Cc1ccc(Oc2ncc(C(F)(F)F)c(C)c2C(=O)Nc2cccc([S@@](C)(=N)=O)c2)c(F)n1 [Example 121C]	50 to 100 nM
Cc1nc(F)ccc1Oc1ncc(C(F)(F)F)c(C)c1C(=O)Nc1cccc(S(N)(=O)=O)c1	< 5 nM
COc1cc(C#N)ccc1Oc1ncc(C(F)(F)F)c(C)c1C(=O)Nc1cccc([S@](C)(=N)=O)c1	< 5 nM
Cc1nc(F)ccc1Oc1nc2ccccc2cc1C(=O)Nc1ccnc([S@](C)(=N)=O)c1 [Example 93C]	100 to 200 nM
COc1cc(C#N)ccc1Oc1ncc(-c2ccc(C(F)F)cc2)c(C)c1C(=O)Nc1ccnc(S(C)(=N)=O)c1 (stereo not shown) [Example 125C]	> 200 nM

* * *

# system.tested: human Nav1.8/b3 (Homo sapiens, UniProt Q9Y5Y9)
# Construct: expressed in transfected cells; host or cells: CHO
# method.summary: Compound Profiling Human NaV1.8/β3 Cell Line—SyncroPatch384PE Assay (automated patch clamp, stably transfected CHO cells)
# Assay type: cell-based
# recorded.conditions: P1 (IC50, resting state block), P1 measurement, resting state block; Nav1.8/b3 CHO cells, holding potential −120 mV; fourth set of compounds

molecule	IC50
Cc1nc(F)ccc1Oc1ncc(C(F)(F)F)c(C)c1C(=O)Nc1cccc([S@@](C)(=O)=NC(=O)C2CNC2)c1	< 5 nM
Cc1nc(F)ccc1Oc1nnc(C(F)(F)F)c(C)c1C(=O)Nc1cccc([S@@](C)(=O)=NC(=O)[C@H](C)O)c1 [Example 18D]	< 5 nM
Cc1nc(F)ccc1Oc1ncc(C(F)(F)F)c(C)c1C(=O)Nc1cccc([S@@](C)(=O)=NC(=O)[C@H]2CCOC2)c1 [Example 15D]	< 5 nM
Cc1nc(F)ccc1Oc1ncc(C(F)(F)F)c(C)c1C(=O)Nc1cccc([S@@](C)(=O)=NC(=O)CN2CC(F)(F)C2)c1 [Example 29D]	< 5 nM
Cc1nc(F)ccc1Oc1ncc(C(F)(F)F)c(C)c1C(=O)Nc1cccc([S@@](C)(=O)=NC(=O)[C@@H]2CCOC2)c1 [Example 10D]	< 5 nM
Cc1nc(F)ccc1Oc1nnc(C(F)(F)F)c(C)c1C(=O)Nc1cccc([S@@](C)(=O)=NC(=O)CN2CC(F)(F)C2)c1 [Example 28D]	< 5 nM
Cc1nc(F)ccc1Oc1nnc(C(F)(F)F)c(C)c1C(=O)Nc1cccc([S@@](C)(=O)=NC(=O)CN)c1 [Example 24D]	5 to 50 nM
Cc1nc(F)ccc1Oc1ncc(C(F)(F)F)c(C)c1C(=O)Nc1cccc([S@@](C)(=O)=NC(=O)[C@@H]2C[C@@H](O)CN2)c1 [Example 17D]	< 5 nM
Cc1nc(F)ccc1Oc1ncc(C(F)(F)F)c(C)c1C(=O)Nc1cccc([S@@](C)(=O)=NC(=O)[C@H](C)O)c1 [Example 13D]	< 5 nM
